target: Anoctamin-1 (Mus musculus); assay: blockers of mouse ANO1 Ca-activated Cl channel – cell-based, HTS, primary screen (AID 588511); details: HEK293 TMEM16A/YFP iodide influx fluorescence, ionomycin; at 10 µM
Out of some 310,000 compounds screened, about 3,600 (1.2%) were called active.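 Rule for the calls: active = ratio plate-corrected score three or more library SD toward inhibition, starting fluorescence score within five deviations; inactive = the rest.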 What follows is part of a selection rich in actives, with near analogues and random picks from the rest.
// allowed return values: active, inactive

# count of solved cases: 8
INSERT INTO results (molecule, target_or_system, assigned_category) VALUES
  ('Cc1ccccc1NC(=O)Nc1ccccc1N1CCCCC1', 'Anoctamin-1 (Mus musculus)', 'inactive'),
  ('Cn1c(SCc2ccc(F)cc2)nnc1-c1ccncc1', 'Anoctamin-1 (Mus musculus)', 'inactive'),
  ('COc1ccc(Cl)cc1NC(=O)CCS(=O)(=O)c1cc2c(cc1C)NC(=O)CO2', 'Anoctamin-1 (Mus musculus)', 'active'),
  ('COc1ccc(NC(=O)CCS(=O)(=O)c2cc3c(cc2Cl)NC(=O)CO3)cc1OC', 'Anoctamin-1 (Mus musculus)', 'inactive'),
  ('COc1cc(CNCc2ccc(OC)c3ccccc23)cc(OC)c1OC', 'Anoctamin-1 (Mus musculus)', 'inactive'),
  ('O=C(CCN1C(=O)c2ccccc2C1=O)C1=NN[C@@H]2C(=O)N(c3ccc(F)cc3)C(=O)[C@H]12', 'Anoctamin-1 (Mus musculus)', 'inactive'),
  ('Cc1ccccc1NC(=O)CNc1ccccc1N1CCCCC1', 'Anoctamin-1 (Mus musculus)', 'inactive'),
  ('Cc1c(C(=O)Nc2ccccn2)oc2ccc(Br)cc12', 'Anoctamin-1 (Mus musculus)', 'inactive');

Qu. What call does the record list for COc1ccc2oc(C(=O)NCC(Cc3ccccc3)N(C)C)c(C)c2c1 (centres undefined) ?
Ans. inactive
